# target_of_assay: SARS-CoV-2 spike RBD wild type (SARS-CoV-2 (Wuhan strain)) (UniProt P0DTC2)
# experimental_protocol: filter binding
# conditions: 11 Nap-dU in place of dT
readout_kind: Kd (nM)
Give bare numbers, in nM.

Req: Kd lookup needed for CTGUCGGUAAGGGAGCUAGUGUAUGCCCCUGAGUUGGGGAUAUCACCGACAG [AM047-0] , thanks.
Resp: 0.02

====

# target_of_assay: SARS-CoV-2 spike RBD wild type (SARS-CoV-2 (Wuhan strain)) (UniProt P0DTC2)
# experimental_protocol: filter binding
# conditions: 11 Nap-dU (5-[N-(1-naphthylmethyl)carboxamide]-2'-deoxyuridine) in place of dT
readout_kind: Kd
A complete answer gives the number followed by the unit.

Req: Kd lookup needed for TATCGAGCGTCCTGCCTTTGCGGAGGUGAACCUUACGUUCAACUGGAUCGUGUGUAGGUACACCGACAGCCACCCAGAAA [AM032-0] , thanks.
Resp: 780 pM
